Read-out record for Calcium/calmodulin-dependent protein kinase type II subunit alpha (Homo sapiens): ΔTm
Express the result in °C but write the number alone.

Consider the worked cases shown below.
- molecule: "O=C1Nc2ccc(I)cc2/C1=C1/Nc2ccccc2/C1=N\\O"
  ΔTm (°C): 4.5
- molecule: "C[S+]([O-])c1ccc(-c2nc(-c3ccc(F)cc3)c(-c3ccncc3)[nH]2)cc1 (stereo unspecified)"
  ΔTm (°C): 0.3

Fill in ΔTm for "Cc1nc2sccn2c(=O)c1CCN1CCC(=C(c2ccccc2)c2ccc(F)cc2)CC1" tested with Calcium/calmodulin-dependent protein kinase type II subunit alpha (Homo sapiens).
1.3

Fill in ΔTm for "Nc1nc(Nc2ccc(S(N)(=O)=O)cc2)nn1C(=S)Nc1c(F)cccc1F" tested with Calcium/calmodulin-dependent protein kinase type II subunit alpha (Homo sapiens).
3.3

Fill in ΔTm for "Nc1n[nH]c2nc3ccccc3nc12" tested with Calcium/calmodulin-dependent protein kinase type II subunit alpha (Homo sapiens).
0.7

Fill in ΔTm for "COC1=C2C[C@@H](C)C[C@H](OC)[C@H](O)[C@@H](C)/C=C(\C)[C@H](OC(N)=O)[C@@H](OC)/C=C\C=C(/C)C(=O)NC(=CC1=O)C2=O" tested with Calcium/calmodulin-dependent protein kinase type II subunit alpha (Homo sapiens).
-0.1

Fill in ΔTm for "O=c1c(-c2ccc(F)cc2)c(-c2ccncc2)[nH]n1-c1ccc(Cl)cc1" tested with Calcium/calmodulin-dependent protein kinase type II subunit alpha (Homo sapiens).
0.5

Fill in ΔTm for "CC(C)[C@H](CO)Nc1nc(Nc2cc(N)cc(Cl)c2)c2ncn(C(C)C)c2n1" tested with Calcium/calmodulin-dependent protein kinase type II subunit alpha (Homo sapiens).
0.5

Fill in ΔTm for COc1ccc2c(c[n+](C)c3c4cc5c(cc4ccc23)OCO5)c1OC [CHELERYTHRINE CHLORIDE] tested with Calcium/calmodulin-dependent protein kinase type II subunit alpha (Homo sapiens).
0.6

Fill in ΔTm for "CN(c1cccnc1)c1cc2c(Nc3ccc(F)c(Cl)c3)c(C#N)cnc2cn1" tested with Calcium/calmodulin-dependent protein kinase type II subunit alpha (Homo sapiens).
3.4

Fill in ΔTm for "CC(C)N(CCO)c1nc(Nc2cccc(Cl)c2)c2ncn(C(C)C)c2n1" tested with Calcium/calmodulin-dependent protein kinase type II subunit alpha (Homo sapiens).
0.5

Fill in ΔTm for "Oc1cccc(-c2nc(N3CCOCC3)c3oc4ncccc4c3n2)c1" tested with Calcium/calmodulin-dependent protein kinase type II subunit alpha (Homo sapiens).
-0.3

Fill in ΔTm for "O=C1c2ccccc2-c2n[nH]c3cccc1c23" tested with Calcium/calmodulin-dependent protein kinase type II subunit alpha (Homo sapiens).
0.8

Fill in ΔTm for "O=C1Cc2c([nH]c3ccc([N+](=O)[O-])cc23)-c2ccccc2N1" tested with Calcium/calmodulin-dependent protein kinase type II subunit alpha (Homo sapiens).
0.6

* * *

Read-out record for Serine/threonine-protein kinase PAK 6 (Homo sapiens): ΔTm
Express the result in °C but write the number alone.

Consider the worked cases shown below.
- molecule: "O=C1NC(=O)C(c2c[nH]c3ccccc23)=C1c1c[nH]c2ccccc12"
  unit-label: "°C"
  ΔTm: 0.8
- molecule: "C[C@@H]1C[C@H]2O[C@@H]2/C=C\\C=C\\C(=O)Cc2c(Cl)c(O)cc(O)c2C(=O)O1 [RADICICOL]"
  unit-label: "°C"
  ΔTm: 0.3
- molecule: "Nc1n[nH]c2nc3ccccc3nc12 [QUINOXALINE1]"
  unit-label: "°C"
  ΔTm: 0.6
- molecule: "CCCNC(=O)Nc1ccc(Oc2ncnc3cc(OC)c(OC)cc23)cc1Cl [KRN-633]"
  unit-label: "°C"
  ΔTm: 0.8
- molecule: "COc1ccc(S(=O)(=O)N(CCO)c2ccccc2CN(C)C/C=C/c2ccc(Cl)cc2)cc1"
  unit-label: "°C"
  ΔTm: -0.8

Fill in ΔTm for "O=c1cc(N2CCOCC2)oc2c1ccc1ccccc12" tested with Serine/threonine-protein kinase PAK 6 (Homo sapiens).
-0.3

Fill in ΔTm for "CCOC(=O)c1c(C)[nH]c(/C=C2\C(=O)Nc3ccccc32)c1C" tested with Serine/threonine-protein kinase PAK 6 (Homo sapiens).
-0.5

Fill in ΔTm for CN(C)CCCn1cc(C2=C(c3c[nH]c4ccccc34)C(=O)NC2=O)c2ccccc21 [GF-109203] tested with Serine/threonine-protein kinase PAK 6 (Homo sapiens).
2.4

Fill in ΔTm for N#CCCc1ccc2c(c1)-c1[nH]c3ccc([N+](=O)[O-])cc3c1CC(=O)N2 [ALSTERPAULLONE 2] tested with Serine/threonine-protein kinase PAK 6 (Homo sapiens).
2.3
